From: ChEMBL document CHEMBL1155172

assay: Drug level in New Zealand white rabbit bone marrow assessed as [14C]dalbavancin level per gram of tissue at 20 mg/kg, iv after 336 hrs by autoradioluminography; format: ADME, organism-based, Oryctolagus cuniculus; set-up: dose 20 mg/kg, route intravenous; details: in vivo

# SMILES_ENTRY, Drug uptake (µg/g)
records = [
    ("CN[C@H]1C(=O)N[C@@H]2Cc3ccc(cc3)Oc3cc4cc(c3O[C@@H]3O[C@H](C(=O)O)[C@@H](O)[C@H](O)[C@H]3NC(=O)CCCCCCCCC(C)C)Oc3ccc(cc3Cl)[C@@H](O)[C@@H]3NC(=O)[C@H](NC(=O)[C@@H]4NC(=O)[C@@H](NC2=O)c2cc(cc(O)c2Cl)Oc2cc1ccc2O)c1ccc(O)c(c1)-c1c(O[C@H]2O[C@H](CO)[C@@H](O)[C@H](O)[C@@H]2O)cc(O)cc1[C@@H](C(=O)NCCCN(C)C)NC3=O", 30.3),
]

----------
assay: Drug level in New Zealand white rabbit bone marrow assessed as [14C]dalbavancin level per gram of tissue at 20 mg/kg, iv after 336 hrs by liquid scintillation counting method; assay type: ADME, organism-based, Oryctolagus cuniculus; design: dose 20 mg/kg, route intravenous; conditions: in vivo

# SMILES_ENTRY, Drug uptake [µg/g]
records = [
    ("CN[C@H]1C(=O)N[C@@H]2Cc3ccc(cc3)Oc3cc4cc(c3O[C@@H]3O[C@H](C(=O)O)[C@@H](O)[C@H](O)[C@H]3NC(=O)CCCCCCCCC(C)C)Oc3ccc(cc3Cl)[C@@H](O)[C@@H]3NC(=O)[C@H](NC(=O)[C@@H]4NC(=O)[C@@H](NC2=O)c2cc(cc(O)c2Cl)Oc2cc1ccc2O)c1ccc(O)c(c1)-c1c(O[C@H]2O[C@H](CO)[C@@H](O)[C@H](O)[C@@H]2O)cc(O)cc1[C@@H](C(=O)NCCCN(C)C)NC3=O", 12),
]

----------
experiment: Drug level in New Zealand white rabbit nucleus pulposus assessed as [14C]dalbavancin level per gram of tissue at 20 mg/kg, iv after 336 hrs by liquid scintillation counting method; type: ADME, organism-based, Oryctolagus cuniculus; set-up: dose 20 mg/kg, route intravenous; conditions: in vivo

# SMILES_ENTRY, Drug uptake [µg/g]
measured = [
    ("CN[C@H]1C(=O)N[C@@H]2Cc3ccc(cc3)Oc3cc4cc(c3O[C@@H]3O[C@H](C(=O)O)[C@@H](O)[C@H](O)[C@H]3NC(=O)CCCCCCCCC(C)C)Oc3ccc(cc3Cl)[C@@H](O)[C@@H]3NC(=O)[C@H](NC(=O)[C@@H]4NC(=O)[C@@H](NC2=O)c2cc(cc(O)c2Cl)Oc2cc1ccc2O)c1ccc(O)c(c1)-c1c(O[C@H]2O[C@H](CO)[C@@H](O)[C@H](O)[C@@H]2O)cc(O)cc1[C@@H](C(=O)NCCCN(C)C)NC3=O", 0.6),
]

----------
tested on: Blood; assay: Drug level in New Zealand white rabbit blood assessed as [14C]dalbavancin level per gram of tissue at 20 mg/kg, iv after 168 hrs by autoradioluminography; assay type: ADME, organism-based, Oryctolagus cuniculus; set-up: dose 20 mg/kg, route intravenous; settings: in vivo
MEASUREMENT_LABEL: Drug uptake (µg/g)

# SMILES_ENTRY, DISPLAY_UNIT, OBS_VALUE
records = [
    ("CN[C@H]1C(=O)N[C@@H]2Cc3ccc(cc3)Oc3cc4cc(c3O[C@@H]3O[C@H](C(=O)O)[C@@H](O)[C@H](O)[C@H]3NC(=O)CCCCCCCCC(C)C)Oc3ccc(cc3Cl)[C@@H](O)[C@@H]3NC(=O)[C@H](NC(=O)[C@@H]4NC(=O)[C@@H](NC2=O)c2cc(cc(O)c2Cl)Oc2cc1ccc2O)c1ccc(O)c(c1)-c1c(O[C@H]2O[C@H](CO)[C@@H](O)[C@H](O)[C@@H]2O)cc(O)cc1[C@@H](C(=O)NCCCN(C)C)NC3=O", "µg/g", 5.33),
]

----------
experiment: Drug level in New Zealand white rabbit synovial space assessed as [14C]dalbavancin level per gram of tissue at 20 mg/kg, iv after 168 hrs by autoradioluminography; assay type: ADME, organism-based, Oryctolagus cuniculus; parameters: dose 20 mg/kg, route intravenous; conditions: in vivo

# SMILES_ENTRY, DISPLAY_UNIT, Drug uptake
records = [
    ("CN[C@H]1C(=O)N[C@@H]2Cc3ccc(cc3)Oc3cc4cc(c3O[C@@H]3O[C@H](C(=O)O)[C@@H](O)[C@H](O)[C@H]3NC(=O)CCCCCCCCC(C)C)Oc3ccc(cc3Cl)[C@@H](O)[C@@H]3NC(=O)[C@H](NC(=O)[C@@H]4NC(=O)[C@@H](NC2=O)c2cc(cc(O)c2Cl)Oc2cc1ccc2O)c1ccc(O)c(c1)-c1c(O[C@H]2O[C@H](CO)[C@@H](O)[C@H](O)[C@@H]2O)cc(O)cc1[C@@H](C(=O)NCCCN(C)C)NC3=O", "µg/g", 2.66),
]

----------
assay: Drug level in New Zealand white rabbit synovial space assessed as [14C]dalbavancin level per gram of tissue at 20 mg/kg, iv after 336 hrs by autoradioluminography; assay type: ADME, organism-based, Oryctolagus cuniculus; design: dose 20 mg/kg, route intravenous; conditions: in vivo
MEASUREMENT_LABEL: Drug uptake (µg/g)

# COMPOUND, MEASUREMENT_LABEL, OBS_VALUE
data = [
    ("CN[C@H]1C(=O)N[C@@H]2Cc3ccc(cc3)Oc3cc4cc(c3O[C@@H]3O[C@H](C(=O)O)[C@@H](O)[C@H](O)[C@H]3NC(=O)CCCCCCCCC(C)C)Oc3ccc(cc3Cl)[C@@H](O)[C@@H]3NC(=O)[C@H](NC(=O)[C@@H]4NC(=O)[C@@H](NC2=O)c2cc(cc(O)c2Cl)Oc2cc1ccc2O)c1ccc(O)c(c1)-c1c(O[C@H]2O[C@H](CO)[C@@H](O)[C@H](O)[C@@H]2O)cc(O)cc1[C@@H](C(=O)NCCCN(C)C)NC3=O [DALBAVANCIN]", "Drug uptake", 1.16),
]

----------
assay: Drug level in New Zealand white rabbit bone marrow assessed as [14C]dalbavancin level per gram of tissue at 20 mg/kg, iv after 12 hrs by liquid scintillation counting method; assay type: ADME, organism-based, Oryctolagus cuniculus; set-up: dose 20 mg/kg, route intravenous; conditions: in vivo

# SMILES_ENTRY, Drug uptake / µg/g
records = [
    ("CN[C@H]1C(=O)N[C@@H]2Cc3ccc(cc3)Oc3cc4cc(c3O[C@@H]3O[C@H](C(=O)O)[C@@H](O)[C@H](O)[C@H]3NC(=O)CCCCCCCCC(C)C)Oc3ccc(cc3Cl)[C@@H](O)[C@@H]3NC(=O)[C@H](NC(=O)[C@@H]4NC(=O)[C@@H](NC2=O)c2cc(cc(O)c2Cl)Oc2cc1ccc2O)c1ccc(O)c(c1)-c1c(O[C@H]2O[C@H](CO)[C@@H](O)[C@H](O)[C@@H]2O)cc(O)cc1[C@@H](C(=O)NCCCN(C)C)NC3=O", 15.1),
]

----------
tested on: Blood; experiment: Drug level in New Zealand white rabbit blood assessed as [14C]dalbavancin level per gram of tissue at 20 mg/kg, iv after 120 hrs by autoradioluminography; assay type: ADME, organism-based, Oryctolagus cuniculus; parameters: dose 20 mg/kg, route intravenous; conditions: in vivo
MEASUREMENT_LABEL: Drug uptake (µg/g)

# MOLECULE, TESTED_TARGET, OBS_VALUE
measured = [
    ("CN[C@H]1C(=O)N[C@@H]2Cc3ccc(cc3)Oc3cc4cc(c3O[C@@H]3O[C@H](C(=O)O)[C@@H](O)[C@H](O)[C@H]3NC(=O)CCCCCCCCC(C)C)Oc3ccc(cc3Cl)[C@@H](O)[C@@H]3NC(=O)[C@H](NC(=O)[C@@H]4NC(=O)[C@@H](NC2=O)c2cc(cc(O)c2Cl)Oc2cc1ccc2O)c1ccc(O)c(c1)-c1c(O[C@H]2O[C@H](CO)[C@@H](O)[C@H](O)[C@@H]2O)cc(O)cc1[C@@H](C(=O)NCCCN(C)C)NC3=O [DALBAVANCIN]", "Blood", 1.5),
]

----------
experiment: Drug level in New Zealand white rabbit periostium assessed as [14C]dalbavancin level per gram of tissue at 20 mg/kg, iv after 72 hrs by autoradioluminography; type: ADME, organism-based, Oryctolagus cuniculus, Periosteum; set-up: dose 20 mg/kg, route intravenous; conditions: in vivo

# COMPOUND, Drug uptake
measured = [
    ("CN[C@H]1C(=O)N[C@@H]2Cc3ccc(cc3)Oc3cc4cc(c3O[C@@H]3O[C@H](C(=O)O)[C@@H](O)[C@H](O)[C@H]3NC(=O)CCCCCCCCC(C)C)Oc3ccc(cc3Cl)[C@@H](O)[C@@H]3NC(=O)[C@H](NC(=O)[C@@H]4NC(=O)[C@@H](NC2=O)c2cc(cc(O)c2Cl)Oc2cc1ccc2O)c1ccc(O)c(c1)-c1c(O[C@H]2O[C@H](CO)[C@@H](O)[C@H](O)[C@@H]2O)cc(O)cc1[C@@H](C(=O)NCCCN(C)C)NC3=O [DALBAVANCIN]", "8.78 µg/g"),
]
